Test system: HCT-15 colon
Test: NCI-60 one-dose screen, 48 h
Details: 10 µM unless noted
About 83,000 compounds went through this panel and 20% of them were active in at least one assay; those are over-represented in the sample as a whole. Activity calls are given as the source filed them. How the source made its calls: active means growth percent below 10; inactive means the rest.
Your answer must be one of the following: active, inactive

Please review the entries below; each comes with its answer.
# input What outcome does the record of this test show for Cc1cc(C)nc(SC2=C(Nc3cc(Cl)ccc3O)C(=O)N(Cc3ccccc3)C2=O)n1 ?
# output inactive

# input Check the results log: what was the call for Cc1[nH]c(-c2ccc3cc[nH]c3c2)c2c1C(=O)CCCC2 ?
# output inactive

# input Lab log entry: CC(C)(CCCN=C(N)Nc1ccc(Cl)cc1)c1ccc(F)cc1 — outcome as called in the assay?
# output inactive

More entries:
# input For O=C(O)c1ccc(NC(=O)c2ccc(-c3cccc([N+](=O)[O-])c3)o2)cc1 , what call appears in the results of this test?
# output inactive

# input What outcome does the record of this test show for COc1cc(-c2nn(-c3ccc(C)cc3)cc2C(=O)O)ccc1O ?
# output inactive

# input Recorded test outcome, item CC1SC(c2ccc(N(C)C)cc2)N(NC(=O)C(O)(c2ccccc2)c2ccccc2)C1=O (centres undefined)
# output inactive

# input Write down the call the test reported for this compound. Item: Cc1cc(N2CCCCC2)nc(NC2CCCC(Nc3ccnc4cc(Cl)ccc34)C2)n1 (centres undefined)
# output active

# input Recorded test call requested for OC(COc1cccc2ccccc12)CN1CCN(c2ccccc2Cl)CC1 (centres undefined)
# output inactive

# input Hi team, can someone confirm the assay call for CCCCC/C(C=C(C#N)C#N)=C/c1ccccc1 ?
# output inactive
